Cited source for all entries: the OPERA property sets (Mansouri et al. 2018)

# note: exactly 4 is not below, so it is FALSE; use TRUE for logP strictly under it

>>> label("Clc1nc(Cl)nc(Nc2ccccc2Cl)n1")
"TRUE"
>>> label("CC(C)OP(=O)(OC(C)C)SCc1ccccc1")
"TRUE"
>>> label("CC(C)OC(=O)C(C(=O)OC(C)C)=C1SCCS1")
"TRUE"
>>> label("CC12CC1(C)C(=O)N(c1cc(Cl)cc(Cl)c1)C2=O (stereo not drawn)")
"TRUE"
>>> label("C#CCOS(=O)OC1CCCCC1Oc1ccc(C(C)(C)C)cc1 (stereo not drawn)")
"FALSE"
>>> label("OC(c1ccc(Cl)cc1)(c1ccc(Cl)cc1)C(Cl)(Cl)Cl")
"FALSE"
>>> label("CCOP(=S)(OCC)Oc1cc(-c2ccccc2)on1")
"TRUE"
>>> label("CCO/N=C(\\OC(=O)c1ccccc1)c1c(OC)ccc(Cl)c1OC")
"TRUE"
>>> label("CC(C)N1C(=O)c2ccccc2NS1(=O)=O")
"TRUE"
>>> label("O=C(NC(=O)c1c(F)cccc1F)Nc1cc(Cl)c(F)c(Cl)c1F")
"FALSE"
>>> label("CCOP(=O)(Sc1ccccc1)Sc1ccccc1")
"TRUE"
